# measurement_target: TRPV1 (Homo sapiens, UniProt Q8NER1)
# Construct: host or cells: HEK293 or CHO
# Sequence (Q8NER1 whole entry): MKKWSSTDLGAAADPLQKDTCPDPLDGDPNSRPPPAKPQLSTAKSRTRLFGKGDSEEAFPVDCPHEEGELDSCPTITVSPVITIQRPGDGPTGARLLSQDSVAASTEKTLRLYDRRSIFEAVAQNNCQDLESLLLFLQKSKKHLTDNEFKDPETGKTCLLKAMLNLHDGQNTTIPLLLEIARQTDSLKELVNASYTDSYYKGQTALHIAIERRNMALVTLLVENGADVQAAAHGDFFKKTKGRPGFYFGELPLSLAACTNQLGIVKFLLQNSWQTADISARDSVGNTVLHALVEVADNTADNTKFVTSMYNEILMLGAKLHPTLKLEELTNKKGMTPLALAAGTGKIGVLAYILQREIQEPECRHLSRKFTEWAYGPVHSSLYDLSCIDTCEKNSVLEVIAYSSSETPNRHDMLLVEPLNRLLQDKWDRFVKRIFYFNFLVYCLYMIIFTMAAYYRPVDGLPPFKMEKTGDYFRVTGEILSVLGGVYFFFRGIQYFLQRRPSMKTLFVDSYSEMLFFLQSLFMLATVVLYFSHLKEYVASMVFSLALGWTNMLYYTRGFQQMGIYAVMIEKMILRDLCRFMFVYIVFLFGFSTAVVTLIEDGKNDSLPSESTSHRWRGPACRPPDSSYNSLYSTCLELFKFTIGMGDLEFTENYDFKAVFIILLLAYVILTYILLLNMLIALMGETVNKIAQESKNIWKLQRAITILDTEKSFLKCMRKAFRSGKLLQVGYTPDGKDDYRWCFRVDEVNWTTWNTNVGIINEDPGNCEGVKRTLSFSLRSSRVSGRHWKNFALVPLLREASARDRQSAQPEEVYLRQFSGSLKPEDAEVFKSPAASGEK
# measurement_notes: Ion channel panel (IonWorks Barracuda): TRPV1
# Type: cell-based
# measurement_conditions: peptide at 20 μM; 100% = no change, <100% = inhibition
# Description: This example describes a method for assaying ion channel activity in cells. Peptides were screened in duplicate at final concentrations of 20 μM and 200 nM, as determined by amino acid analysis, and diluted into HEPES buffered physiological saline (HBPS). HEK293 or CHO cells from the American Type Culture Collection (ATCC) were transfected with the appropriate ion channel before use. […]
Quick rule: Activity of TRPV1 with peptide (percentage of the reference compound) of at least 90% means MET, below that means NOT MET.

Consider the worked cases shown below.
>  <substance>
11 (GSGDCLPHLKRCKENNDCCSKKCKRRGANPEKRCR) [compound 11]

>  <assigned_label>
MET

$$$$
>  <substance>
36 (GSAQEPVKGPVSTKPGSCPIILIRCAMLNPPNRCLKDTDCPGIKKCCEGSCGMACFVPQ) [compound 36]

>  <assigned_label>
NOT MET

$$$$
>  <substance>
21 (GSAEIIRCSGTRECYAPCQKLTGCLNAKCMNKACKCYGCV) [compound 21]

>  <assigned_label>
NOT MET

$$$$

Check if Activity of TRPV1 with peptide (percentage of the reference compound) >= 90% (inclusive). Item: 4 (GSSCAKPRENCNRMNILCCRGECVCPTFGDCFCYGD) [compound 4] MET

Could you please find out whether 39 (GSGVPTDVKCRGSPQCIQPCKDAGMRFGKCMNGKCHCTPK) [compound 39] has Activity of TRPV1 with peptide (percentage of the reference compound) that meets 90% or exceeds it? NOT MET

Hi team, for 6 (GSVRIPVSCKHSGQCLKPCKDAGMRFGKCMNGKCDCTPK) [compound 6] , is the recorded Activity of TRPV1 with peptide (percentage of the reference compound) at or above 90%? MET

Can 18 (GSNCAGYMRECKEKLCCSGYVCSSRWKWCVLPAPWRR) [compound 18] be said to have Activity of TRPV1 with peptide (percentage of the reference compound) at or above 90%? NOT MET
